Biological target: T1, recombinant human CD3 (human CD3eg linker) (Homo sapiens, UniProt P07766+P09693)
T1 construct: made in house; host or cells: FreeStyle293F
T1 sequence (P07766+P09693 fused): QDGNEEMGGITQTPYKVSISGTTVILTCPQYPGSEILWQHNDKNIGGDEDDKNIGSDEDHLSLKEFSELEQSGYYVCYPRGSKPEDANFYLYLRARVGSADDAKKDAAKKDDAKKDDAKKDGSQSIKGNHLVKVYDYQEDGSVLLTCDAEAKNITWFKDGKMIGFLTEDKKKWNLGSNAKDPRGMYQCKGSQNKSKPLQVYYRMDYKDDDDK
Assay: Biacore T200 SPR affinity of Dual-Fab antibodies to human CD3
Assay type: binding
Conditions: 25 degrees C, pH 7.4
Hi there, I'd appreciate the recorded CD3 Kon for every entry that follows.
Answers are plain numbers, in M⁻¹ s⁻¹.

molecule	measureUnit	CD3 Kon
H1651L0581: affinity matured Dual-Fab variant, VH SEQ ID NO 98, VL SEQ ID NO 143 (antibody, V domains shown) VH: QVQLVESGGGLVQPGRSLRLSCAASGFVFSNVWFHWVRQAPGKGLEWVAQIKDKYNAYADYYAPSVEGRFTISRDDSKNSIYLQMNSLKTEDTAVYYCHYVHYASASTLLPAEGVDAWGQGTTVTVSS VL: DIVMTQSPLSLPVTPGEPASISCQPSQEVVHMNRNTYLHWYQQKPGQAPRLLIYKVSNRFPGVPDRFSGSGSGTDFTLKISRVEAEDVGVYYCAQGTSHPFTFGQGTKLEIK	M⁻¹ s⁻¹	71800
H1673L0943: affinity matured Dual-Fab variant, VH SEQ ID NO 100, VL SEQ ID NO 146 (antibody, V domains shown) VH: QVQLVESGGGLVQPGRSLRLSCAASGFVFSNVWFHWVRQAPGKGLEWVAQIKDKWNAYADYYAPSVKERFTISRDDSKNSIYLQMNSLKTEDTAVYYCHYIHYASASTLLPAEGIDAWGQGTTVTVSS VL: DIVMTQSPLSLPVTPGEPASISCQPSEEVVHMNRNTYLHWYQQKPGQAPRLLIYKVSNLFPGVPDRFSGSGSGTDFTLKISRVEAEDVGVYYCAQGTHHPFTFGQGTKLEIK	M⁻¹ s⁻¹	55000

Form field CD3 Kon, entry H1610L0581: affinity matured Dual-Fab variant, VH SEQ ID NO 94, VL SEQ ID NO 143 (antibody, V domains shown) VH: QVQLVESGGGLVQPGRSLRLSCAASGFVFSNVWMHWVRQAPGKGLEWVAQIKDKWNAYAAYYAPSVKGRFTISRDDSKNSIYLQMNSLKTEDTAVYYCHYIHYASASTLLPAEGIDAWGQGTTVTVSS VL: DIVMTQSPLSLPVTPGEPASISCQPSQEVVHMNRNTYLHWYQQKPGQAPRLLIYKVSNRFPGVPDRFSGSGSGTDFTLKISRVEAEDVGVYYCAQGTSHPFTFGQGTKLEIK : 68000
